Test system: Vero
method: Antiproliferative activity against African green monkey Vero cells by MTT assay
Format: cell-based
reportedConditions: Chlorocebus sabaeus
propertyName: IC50 (µM)
Give the value, in units of µM, as a plain number.

Reported IC50 for CO[C@@H]1[C@@H](O[C@@H]2O[C@H](CO)[C@@H](O)[C@H](O)[C@H]2O)[C@H](C)O[C@@H](O[C@H]2CC[C@@]3(C)[C@H](CC[C@@H]4[C@@H]3CC[C@]3(C)[C@@H](C5=CC(=O)OC5)[C@@H](OC(C)=O)C[C@]43O)C2)[C@@H]1OC(C)=O was 5.8

Reported IC50 for COc1cccc2c1C(=O)c1c(O)c3c(c(O)c1C2=O)C[C@@](O)(C(=O)CO)C[C@@H]3O[C@H]1C[C@H](N)[C@H](O)[C@H](C)O1 [DOXORUBICIN] was 6.6

Reported IC50 for CO[C@H]1[C@@H](O)[C@H](O[C@H]2CC[C@@]3(C)[C@H](CC[C@@H]4[C@@H]3CC[C@]3(C)[C@@H](C5=CC(=O)OC5)[C@@H](OC(C)=O)C[C@]43O)C2)O[C@@H](C)[C@@H]1O[C@@H]1O[C@H](CO[C@@H]2O[C@H](CO)[C@@H](O)[C@H](O)[C@H]2O)[C@@H](O)[C@H](O)[C@H]1O was 4.8

----------
Test system: HeLa S3
method: Antiproliferative activity against human HeLaS3 cells by MTT assay
Assay type: functional, cell-based
I'd be grateful if you could share measured IC50 for these entries.
Give the value, in units of nM, as a plain number.

Reported IC50 for CO[C@@H]1[C@@H](O)[C@H](C)O[C@@H](O[C@H]2CC[C@@]3(C)[C@H](CC[C@@H]4[C@@H]3CC[C@]3(C)[C@@H](C5=CC(=O)OC5)[C@@H](OC(C)=O)C[C@]43O)C2)[C@@H]1OC(C)=O was 40

Reported IC50 for COc1cc([C@@H]2c3cc4c(cc3[C@@H](O[C@@H]3O[C@@H]5CO[C@@H](C)O[C@H]5[C@H](O)[C@H]3O)[C@H]3COC(=O)[C@H]23)OCO4)cc(OC)c1O [ETOPOSIDE] was 500

Reported IC50 for CO[C@@H]1[C@@H](O)[C@H](O[C@H]2CC[C@@]3(C)[C@H](CC[C@@H]4[C@@H]3CC[C@]3(C)[C@@H](C5=CC(=O)OC5)[C@@H](O)C[C@]43O)C2)O[C@@H](C)[C@@H]1O[C@@H]1O[C@H](CO)[C@@H](O)[C@H](O)[C@H]1O was 6800

Reported IC50 for CO[C@@H]1[C@@H](O)[C@H](O[C@H]2CC[C@@]3(C)[C@H](CC[C@@H]4[C@@H]3CC[C@]3(C)[C@@H](C5=CC(=O)OC5)[C@@H](OC(C)=O)C[C@]43O)C2)O[C@@H](C)[C@@H]1O[C@@H]1O[C@H](CO)[C@@H](O)[C@H](O)[C@H]1O was 100

----------
Test system: HeLa S3
method: Antiproliferative activity against human HeLaS3 cells by MTT assay
Assay type: functional, cell-based
I'd be grateful if you could share measured IC50 for these entries.
Give the value, in units of nM, as a plain number.

Reported IC50 for CO[C@H]1[C@@H](O)[C@H](O[C@H]2CC[C@@]3(C)[C@H](CC[C@@H]4[C@@H]3CC[C@]3(C)[C@@H](C5=CC(=O)OC5)[C@@H](OC(C)=O)C[C@]43O)C2)O[C@@H](C)[C@@H]1O[C@@H]1O[C@H](CO[C@@H]2O[C@H](CO)[C@@H](O)[C@H](O)[C@H]2O)[C@@H](O)[C@H](O)[C@H]1O was 400

Reported IC50 for CO[C@H]1[C@@H](O)[C@H](O[C@H]2CC[C@@]3(C)[C@H](CC[C@@H]4[C@@H]3CC[C@]3(C)[C@@H](C5=CC(=O)OC5)[C@@H](OC(C)=O)C[C@]43O)C2)O[C@@H](C)[C@@H]1O[C@@H]1O[C@H](CO)[C@@H](O)[C@H](O)[C@H]1O was 200

Reported IC50 for CO[C@@H]1[C@@H](O)[C@H](O[C@H]2CC[C@@]3(C)[C@H](CC[C@@H]4[C@@H]3CC[C@]3(C)[C@@H](C5=CC(=O)OC5)[C@@H](OC(C)=O)C[C@]43O)C2)O[C@@H](C)[C@@H]1O[C@@H]1O[C@H](CO[C@@H]2O[C@H](CO)[C@@H](O)[C@H](O)[C@H]2O)[C@@H](O)[C@H](O)[C@H]1O was 500
